Biological target: T1, hFLT3-His fusion protein (human, UniProt P36888 27-541, limits assumed)
T1 construct: Soluble recombinant antigen used for immunisation, ELISA, SPR and BLI binning; also called recombinant hFLT3 protein; not shown: His tag
T1 sequence (looked up): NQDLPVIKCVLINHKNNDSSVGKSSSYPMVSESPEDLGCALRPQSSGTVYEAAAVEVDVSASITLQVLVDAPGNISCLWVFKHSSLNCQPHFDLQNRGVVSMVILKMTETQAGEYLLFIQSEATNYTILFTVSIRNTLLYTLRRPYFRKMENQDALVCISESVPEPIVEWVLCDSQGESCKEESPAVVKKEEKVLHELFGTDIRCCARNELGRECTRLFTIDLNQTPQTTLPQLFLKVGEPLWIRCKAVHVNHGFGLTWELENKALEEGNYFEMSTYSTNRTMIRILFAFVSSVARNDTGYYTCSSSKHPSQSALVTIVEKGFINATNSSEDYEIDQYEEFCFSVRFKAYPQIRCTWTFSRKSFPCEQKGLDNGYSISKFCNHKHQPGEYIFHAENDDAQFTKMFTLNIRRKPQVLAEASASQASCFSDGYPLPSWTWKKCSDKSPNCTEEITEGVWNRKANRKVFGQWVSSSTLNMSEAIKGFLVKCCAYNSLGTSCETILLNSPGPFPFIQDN
Experiment: SPR, purified murine subclone mAb, hFLT3-His
TEST_READOUT: koff

The binder 12H10.G7 (antibody, V domains shown, Purified murine mAb from a hybridoma subclone) VH: EVQLQESGPELVKPGASVKMSCKASGYTFTRYVMHWVKQRPGQGLEWIGFINPYNDDTKYNEKFKGKATLTSDKSSSTAYMELSSLTSEDSAVYHCARWRQLGSLDSWGQGTTLTVSS VL: NIVLTQSPASLAVSLGQRATISCRASESVDTYGSSFVHWYQQKPGQPPKLLIYLASNLESGVPARFSGSGSRSDFTLTIDPVEADDAATYYCQQNNEEPWTFGGGTKLEIK showed koff equal to 0.00055 s⁻¹

// sample 15A11.C8 (antibody, V domains shown, Purified murine mAb from a hybridoma subclone) VH: EVQLQESGGGLVKTGGSRKLSCAASGFTFSDYGMHWVRHTPEKGLEWVVYISSGGNTIFYTDTVKGRFTISRDNAKNTLFLQMTSLRSEDTAVYFCVRQGYYYAMDYWGQGASVTVSS VL: DIQMTQTTSSLSASLGDRVTIRCRASQDITNYLNWYQQKPDGAVKLLISYTSILQSGVPSRFSGSGSGTDYSLTISNLEQGDVATYFCQQGSSLPWTFGGGTKLEIK , its koff was 0.00048 s⁻¹

For reference, reported koff for 1A2.A3 (antibody, V domains shown, Purified murine mAb from a hybridoma subclone) VH: EVQLQESGPELVKPGASVKISCKASGYSFTGYYIHWVKQSPEESLEWIGEIYPNTGITTYNQKFTAKATLTVDKSSNTAYMQLKSLTSEDSAVYYCTRWGDYYGRDYWGQGTSVTVSS VL: DIVLTQSPASLAVSLGQRATISCRASETVDTHGNSFMHWYQQKPGQPPKLLIYRASNLESGIPARFSGSGSRTDFTLTINPVEADDVATYYCQQSNEDPRTFGGGTKLEIK stands at 0.00089 s⁻¹
